# Test system: MALME-3M melanoma
# testSummary: NCI-60 one-dose screen, 48 h (100 = growth as untreated, 0 = no growth, -100 = all killed)
# particulars: 10 µM unless noted
This is part of a sample that, as a whole, favours compounds with a hit. Of some 83,000 tested, about 20% had one in any assay.
Some compounds, each annotated with its measured growth.
measuredMetric: growth (%)

{"columns": ["compound", "targetEntity", "measuredMetric", "quantitativeReadout"],
 "data": [
  ["CC[C@H](CO)Nc1nc(NCc2ccccc2)c2ncn(C(C)C)c2n1", "MALME-3M melanoma", "growth", 87.4],
  ["CN1CCN(c2nc(C3=C(c4c[nH]c5ccccc45)C(=O)NC3=O)c3ccccc3n2)CC1", "MALME-3M melanoma", "growth", -12.8],
  ["CC/C(=C(/c1ccc(Cl)cc1)c1ccc(OCCN2CCCCC2)cc1)c1ccc(Cl)cc1", "MALME-3M melanoma", "growth", 82.9],
  ["CO[C@@H](C(=O)N1Cc2[nH]nc(NC(=O)c3ccc(N4CCN(C)CC4)cc3)c2C1)c1ccccc1", "MALME-3M melanoma", "growth", 48.6],
  ["Cn1c(Nc2ccc(C(F)(F)F)cc2)nc2cc(Oc3ccnc(-c4ncc(C(F)(F)F)[nH]4)c3)ccc21", "MALME-3M melanoma", "growth", -11.7],
  ["Cc1cc(Nc2nc(N[C@@H](C)c3ncc(F)cn3)ncc2Cl)n[nH]1", "MALME-3M melanoma", "growth", 56.4],
  ["CS(=O)(=O)CCNCc1ccc(-c2ccc3ncnc(Nc4ccc(OCc5cccc(F)c5)c(Cl)c4)c3c2)o1", "MALME-3M melanoma", "growth", -80.3],
  ["COC(=O)[C@@H](C)CNS(=O)(=O)N(c1cc(C(F)(F)F)cc(C(F)(F)F)c1)C1CCN(Cc2ccc(F)cc2)CC1", "MALME-3M melanoma", "growth", 43.8],
  ["CCN(CCN(C)C)C(=O)CNCc1cc(C(N)=O)ccn1", "MALME-3M melanoma", "growth", 114],
  ["O=C1C=CC2(NN=C(c3ccccc3)N2c2ccc(Cl)cc2)c2cccc(O)c21 (stereo not drawn)", "MALME-3M melanoma", "growth", 38.8],
  ["O=C(Cc1ccccc1)Nc1nnc(NC2CCN(c3nnc(NC(=O)Cc4ccccc4)s3)CC2)s1", "MALME-3M melanoma", "growth", 82.8],
  ["Cc1cc(C(O)CN(C)C)cc2c1ccc1cc(C(C)C)ccc12 (stereo not drawn)", "MALME-3M melanoma", "growth", -77.3],
  ["C=CCn1c(=O)c2cnc(Nc3ccc(N4CCN(C)CC4)cc3)nc2n1-c1cccc(C(C)(C)O)n1", "MALME-3M melanoma", "growth", 44.8],
  ["CCCCCCCCCCCC[n+]1ccccc1", "MALME-3M melanoma", "growth", 0.501],
  ["CCCCCCCC(=O)SCC/C=C/[C@@H]1CC(=O)NCc2cccc(n2)C2=N[C@@](C)(CS2)C(=O)N[C@@H](C(C)C)C(=O)N1", "MALME-3M melanoma", "growth", 2.46],
  ["COc1cc(NCCN(CC(C)C)CC(C)C)c2ncc(C)cc2c1", "MALME-3M melanoma", "growth", 66.7],
  ["CN1CCN(CCCOc2cccc3nc(Nc4ccc(Cl)c(C(F)(F)F)c4)ccc23)CC1", "MALME-3M melanoma", "growth", 34.1],
  ["O=C1CSC(c2c(F)cccc2Cl)N1NC(=O)C(O)(c1ccccc1)c1ccccc1 (stereo not drawn)", "MALME-3M melanoma", "growth", 82.1],
  ["N#Cc1c(-c2ccc(Cl)cc2)csc1NC(=O)Nc1cccc(C(F)(F)F)c1", "MALME-3M melanoma", "growth", 14.8],
  ["CCc1cc2c(cc1N1CCC(N3CCOCC3)CC1)C(C)(C)c1[nH]c3cc(C#N)ccc3c1C2=O", "MALME-3M melanoma", "growth", -27.4],
  ["O=C(CNc1nc(-c2ccc(Cl)cc2)cs1)Nc1ccc(-c2nc3ccccc3s2)cc1", "MALME-3M melanoma", "growth", 102],
  ["Cc1cc2c(F)c(Oc3ncnn4cc(OC[C@@H](C)OC(=O)[C@H](C)N)c(C)c34)ccc2[nH]1", "MALME-3M melanoma", "growth", 11.4],
  ["O=C(Nc1ccc(N=Nc2ccccc2)cc1)c1cccc2ccccc12", "MALME-3M melanoma", "growth", 71.6],
  ["Cc1cc(Oc2ccccc2)ccc1Nc1ncnc2ccc(-c3cnc(Cl)c(NS(C)(=O)=O)c3)cc12", "MALME-3M melanoma", "growth", 0.126],
  ["C=CC(=O)N1CCC(Oc2cc3c(Nc4ccc(Cl)c(Cl)c4F)ncnc3cc2OC)CC1", "MALME-3M melanoma", "growth", 60.9],
  ["CC(C)(O)CC(=O)NCCn1ccc2ncnc(Nc3ccc(Oc4cccc(C(F)(F)F)c4)c(Cl)c3)c21", "MALME-3M melanoma", "growth", -8.01],
  ["COc1ccc2c(CCCC(c3ccccc3)c3ccccc3)c3[n+](cc2c1OC)CCc1cc2c(cc1-3)OCO2", "MALME-3M melanoma", "growth", -66.7],
  ["CC(C)C1CCC(C)C(C2(C#N)C(N)=NC(N)=C2C#N)C1=O (stereo not drawn)", "MALME-3M melanoma", "growth", 92.3],
  ["COc1ccc(C2CC(=O)c3c(O)c(OC)c(OC)c(OC)c3O2)cc1O (stereo not drawn)", "MALME-3M melanoma", "growth", 57.5],
  ["c1cn2cc(-c3ccc4cn[nH]c4c3)nc(Nc3ccc(N4CCOCC4)cc3)c2n1", "MALME-3M melanoma", "growth", 74.8],
  ["COc1ccc2c(CCCc3ccc(Cl)cc3Cl)c3[n+](cc2c1OC)CCc1cc2c(cc1-3)OCO2", "MALME-3M melanoma", "growth", -28.7],
  ["O=C(Cn1ccc2ccccc21)Nc1ccc(-c2nc3ccccc3s2)cc1", "MALME-3M melanoma", "growth", 108],
  ["Cc1cc(-c2cc(OC(=O)c3ccccc3)ccc2Cl)cc2nnc(Nc3ccc(OCCN4CCCC4)cc3)nc12", "MALME-3M melanoma", "growth", 79.2],
  ["O=c1[nH]c(N2CCOCC2)nc2scc(-c3ccccc3)c12", "MALME-3M melanoma", "growth", 88.8],
  ["CCN1CCN(CCCN(C[C@H]2Cc3ccccc3CN2)[C@H]2CCCc3cccnc32)CC1", "MALME-3M melanoma", "growth", 113],
  ["COc1ccc(-c2nocc2-c2cc(OC)c(OC)c(OC)c2)cc1", "MALME-3M melanoma", "growth", 60.3],
  ["Cc1cc(Nc2cc(N3CCN(C)CC3)nc(Sc3ccc(NC(=O)C4CC4)cc3)n2)n[nH]1", "MALME-3M melanoma", "growth", 29.3],
  ["CCn1cc(-c2ccnc3[nH]c(-c4cccc(CN(C)C)c4)cc23)c(-c2ccc(NC(=O)N(C)C)cc2)n1", "MALME-3M melanoma", "growth", 46.9]
]}
